B1: library; numbered along this chain (parent)
chain: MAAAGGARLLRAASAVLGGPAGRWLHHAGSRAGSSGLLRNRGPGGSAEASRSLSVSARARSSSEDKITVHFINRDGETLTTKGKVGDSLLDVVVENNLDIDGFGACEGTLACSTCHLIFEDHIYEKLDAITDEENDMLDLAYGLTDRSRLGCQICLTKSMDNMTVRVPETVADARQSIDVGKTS

Variants of: B1
METHOD NOTES: scaled log2 fold change in cell abundance, elesclomol vs control (0 = silent mean, 1 = nonsense mean) (scaled log2 ratio); higher = higher viability under elesclomol (loss of FDX1 cuproptosis function);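 note: variant abundance is its share of total variant reads in each endpoint sample, from next-generation sequencing of the integrated ORF PCR-amplified out of genomic DNA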
MEASUREMENT CONDITIONS: with HEK293T FDX1 KO; elesclomol 40 nM; glucose 10 mM; 11 days
RESULT TYPE: scaled log2 fold change

>>> df
    variant_id  value_measured
 0        R74I            1.14
 1       E134S           0.571
 2       T114A          0.0983
 3       L144A          -0.304
 4       D139M           0.155
 5        S50Y           0.499
 6       S113N           0.213
 7        V55A         -0.0113
 8        V92R           0.379
 9        A21L           0.118
10       C112P            0.87
11       G151F            1.32
12       T183R          -0.367
13       G102V          -0.174
14       L117K            1.03
15       F103S           0.923
16         R8A          0.0204
17        F71G           0.752
18        T78P          -0.366
19        R60N           0.128
20       G181S           0.902
21       L110M           0.602
22        R39N          -0.278
23        A15K          -0.495
24        P43I          -0.356
25       R147D           0.314
26        L89W            1.33
27       V180N         -0.0838
28        L98E           0.172
29        S46A           0.128
30       S177K          -0.228
31        N96T          -0.163
32       T183F          -0.199
33       E120R          -0.473
34        A59R          -0.456
35       P168W           0.286
36       C115M            1.19
37        V69F           -0.24
38       V180E          -0.141
39       Q153F           0.361
40       D146F           0.866
41       L127E           0.536
42        I72L          -0.275
43        S14I          -0.397
44       L140W           0.639
45        R41H          -0.535
46       T145L           0.152
47        G29C          -0.731
48       L144Q           -1.45
49       S113W           0.762
50       D139C          -0.576
51       I130Y           0.102
52       G108V            1.34
53        G18R          -0.618
54       G108K           0.101
55        W24Q           0.364
56       D173M          0.0547
57         G5S          -0.121
58        A57G             1.2
59        L17M          0.0514
60        G44T          0.0578
61       L127I           0.119
62       K158M          -0.505
63        V85G           0.288
64        A15Q           0.886
